- Tested on: NCI 60 cancer cell lines
- assay summary: NCI anticancer screening over a panel of 60 cancer cells, single concentration 10 µM
- Assay type: cell-based, human
- conditions: Homo sapiens, OVCAR-5, Ovarian cancer OVCAR-5, 10 μM; read-out: % Growth Inhibition (GI %)
This listing pairs molecules with measured inhibition at 10 µM.

Record COc1ccc2[nH]c(=O)cc(-n3ncc(/C(C)=N/Nc4ccc(C(=O)O)cc4)c3C)c2c1 [Compound 4h] : what is its inhibition at 10 µM with NCI 60 cancer cell lines?
< 5%

---
Record C/C(=N\Nc1ccc(S(N)(=O)=O)cc1)c1cnn(-c2cc(=O)[nH]c3ccc(Br)cc23)c1C [Compound 4e] : what is its inhibition at 10 µM with NCI 60 cancer cell lines?
18.6%

Record C/C(=N\Nc1ccc(S(N)(=O)=O)cc1)c1cnn(-c2cc(=O)[nH]c3ccccc23)c1C [Compound 4a] : what is its inhibition at 10 µM with NCI 60 cancer cell lines?
< 5%

Record COc1ccc2[nH]c(=O)cc(-n3ncc(/C(C)=N/Nc4ccc(S(N)(=O)=O)cc4)c3C)c2c1 [Compound 4c] : what is its inhibition at 10 µM with NCI 60 cancer cell lines?
< 5%

----------
- Tested on: NCI 60 cancer cell lines
- assay summary: NCI anticancer screening over a panel of 60 cancer cells, single concentration 10 µM
- Format: cell-based, human
- conditions: Homo sapiens, MOLT-4, Leukemia MOLT-4, 10 μM; read-out: Growth inhibition (GI %)
measured attribute: inhibition at 10 µM

Some compounds with recorded inhibition at 10 µM:
Returns the measured inhibition at 10 µM for the input compound. Input: COc1ccc2[nH]c(=O)cc(-n3ncc(C(C)=O)c3C)c2c1
< 5%

Returns the measured inhibition at 10 µM for the input compound. Input: CC(=O)c1cnn(-c2cc(=O)[nH]c3ccc(C)cc23)c1C
< 5%

---
Returns the measured inhibition at 10 µM for the input compound. Input: CC(=O)c1cnn(-c2cc(=O)[nH]c3ccc(Br)cc23)c1C
< 5%

----------
This listing pairs compounds with measured inhibition at 10 µM.
- System: NCI 60 cancer cell lines
- assay summary: NCI anticancer screening over a panel of 60 cancer cells, single concentration 10 µM
- Format: cell-based, human
- conditions: Homo sapiens, ACHN, Renal cancer ACHN, 10 μM; read-out: Growth inhibition (GI %)

Some compounds with recorded inhibition at 10 µM:
Returns the measured inhibition at 10 µM for the input compound. Input: CC(=O)c1cnn(-c2cc(=O)[nH]c3ccc(C)cc23)c1C
< 5%

Returns the measured inhibition at 10 µM for the input compound. Input: CC(=O)c1cnn(-c2cc(=O)[nH]c3ccc(Br)cc23)c1C
< 5%

Now look at this one.
Returns the measured inhibition at 10 µM for the input compound. Input: COc1ccc2[nH]c(=O)cc(-n3ncc(C(C)=O)c3C)c2c1
< 5%

----------
- System: NCI 60 cancer cell lines
- assay summary: NCI anticancer screening over a panel of 60 cancer cells, single concentration 10 µM
- Assay type: cell-based, human
- conditions: Homo sapiens, MCF7, Breast cancer MCF7, 10 μM; read-out: % Growth Inhibition (GI %)
measured attribute: inhibition at 10 µM (%)
Write the answer as a number in %, unit excluded.

Returns the measured inhibition at 10 µM for the input molecule. Input: C/C(=N\Nc1ccc(C(=O)O)cc1)c1cnn(-c2cc(=O)[nH]c3ccc(Cl)cc23)c1C
8.38

Returns the measured inhibition at 10 µM for the input molecule. Input: C/C(=N\Nc1ccc(C(=O)O)cc1)c1cnn(-c2cc(=O)[nH]c3ccc(C)cc23)c1C
9.62

Returns the measured inhibition at 10 µM for the input molecule. Input: C/C(=N\Nc1ccc(S(N)(=O)=O)cc1)c1cnn(-c2cc(=O)[nH]c3ccc(Cl)cc23)c1C
36.3

Now look at this one.
Returns the measured inhibition at 10 µM for the input molecule. Input: C/C(=N\Nc1ccc(S(N)(=O)=O)cc1)c1cnn(-c2cc(=O)[nH]c3ccc(Br)cc23)c1C
76.8

----------
This listing pairs compounds with measured inhibition at 10 µM.
- Test system: NCI 60 cancer cell lines
- assay summary: NCI anticancer screening over a panel of 60 cancer cells, single concentration 10 µM
- Format: cell-based, human
- conditions: Homo sapiens, SK-MEL-28, Melanoma SK-MEL-28, 10 μM; read-out: % Growth Inhibition (GI %)

Returns the measured inhibition at 10 µM for the input compound. Input: C/C(=N\Nc1ccc(C(=O)O)cc1)c1cnn(-c2cc(=O)[nH]c3ccc(C)cc23)c1C
< 5%

Returns the measured inhibition at 10 µM for the input compound. Input: C/C(=N\Nc1ccc(C(=O)O)cc1)c1cnn(-c2cc(=O)[nH]c3ccccc23)c1C
< 5%

Returns the measured inhibition at 10 µM for the input compound. Input: COc1ccc2[nH]c(=O)cc(-n3ncc(/C(C)=N/Nc4ccc(C(=O)O)cc4)c3C)c2c1
< 5%

---
Returns the measured inhibition at 10 µM for the input compound. Input: C/C(=N\Nc1ccc(S(N)(=O)=O)cc1)c1cnn(-c2cc(=O)[nH]c3ccc(C)cc23)c1C
< 5%

Returns the measured inhibition at 10 µM for the input compound. Input: C/C(=N\Nc1ccc(S(N)(=O)=O)cc1)c1cnn(-c2cc(=O)[nH]c3ccc(Br)cc23)c1C
65.3%

Returns the measured inhibition at 10 µM for the input compound. Input: C/C(=N\Nc1ccc(S(N)(=O)=O)cc1)c1cnn(-c2cc(=O)[nH]c3ccccc23)c1C
6.43%
